# target-of-assay: RhlR (Pseudomonas aeruginosa)
# Construct: expressed in transfected cells; host or cells: E. coli sdiA variant co-transformed with pJN105R and pSC11 (RhlA::lacZ)
# Sequence (P54292 whole entry): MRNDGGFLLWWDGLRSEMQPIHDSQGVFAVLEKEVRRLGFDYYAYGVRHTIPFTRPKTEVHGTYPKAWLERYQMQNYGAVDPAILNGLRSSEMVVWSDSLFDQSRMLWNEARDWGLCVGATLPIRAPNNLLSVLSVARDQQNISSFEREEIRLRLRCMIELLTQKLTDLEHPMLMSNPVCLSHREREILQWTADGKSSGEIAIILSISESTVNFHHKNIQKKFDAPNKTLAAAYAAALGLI
# test: cell-based
# assay-setup: Table 2; footnotes not given; 100 μM per Table 3; lower = stronger antagonism
# Text: Escherichia coli (E. coli) DH5a includes LuxR homolog SdiA detecting endogenous AHL synthesized by other microbial species, particularly, BHL. For RhlR reporter strain analysis, the present invention used pJN105R (RhlR expression plasmid), anspSC11 (RhlA::lacZ fusion plasmid) and an sdiA variant co-transformed with the two plasmids. […] Relative RhlR activity was quantified by measuring luminescence at OD 595 nm. […]
Marks after values point to notes of the source that are not given here.
measurement-name: Relative RhlR activity Antagonism

Below are worked cases with known answers.
[[record]]
molecule = "CCCC(O)CC(=O)/C=C/c1ccccc1C (stereo not shown) [Compound 11i, (E)-5-Hydroxy-1-(o-tolyl)oct-1-en-3-one]"
value_reported = "65** %"

[[record]]
molecule = "CCCC(O)CC(=O)/C=C/c1cccc(O)c1 (stereo not shown) [Compound 11e]"
value_reported = "78** %"


Q: // returns reported Relative RhlR activity Antagonism for input CCCCCC(=O)CCc1ccc(O)c(OC)c1 [Compound 14b, 1-(4-Hydroxy-3-methoxyphenyl)octan-3-one]
A: 49** %

Q: Sample CCCCCC(O)CCc1ccc(O)c(OC)c1 (stereo not shown) [Compound 27] — what was its Relative RhlR activity Antagonism?
A: 45** %
